Test system: 15 different HLA-DR molecules
Protocol Description: HLA-DR binding assays, panel of 15 different HLA-DR molecules (breadth of binding)
Recorded Conditions: number of the 15 HLA-DR molecules bound (binders: 1000 nM or better)
// Total XRN lookup, one value per entry

# Compound, System Under Test, Total XRN
records = [
    ("CC[C@H](C)[C@H](NC(=O)[C@H](CC(C)C)NC(=O)[C@@H](NC(=O)[C@@H](N)Cc1ccc(O)cc1)C(C)C)C(=O)N[C@@H](C)C(=O)N[C@@H](Cc1c[nH]cn1)C(=O)N[C@@H](CC(N)=O)C(=O)N[C@@H](CCC(N)=O)C(=O)N[C@H](C(=O)N[C@@H](CCCNC(=N)N)C(=O)N[C@@H](CCC(N)=O)C(=O)N[C@H](C(=O)N1CCC[C@H]1C(=O)N[C@@H](CC(C)C)C(=O)N[C@@H](CCC(N)=O)C(=O)O)C(C)C)C(C)C [Peptide 9019.0033]", "15 different HLA-DR molecules", 14),
    ("CC[C@H](C)[C@H](NC(=O)[C@H](CC(C)C)NC(=O)[C@H](CC(C)C)NC(=O)[C@H](CO)NC(=O)[C@H](C)NC(=O)[C@H](CC(N)=O)NC(=O)[C@@H]1CCCN1C(=O)[C@H](Cc1ccc(O)cc1)NC(=O)[C@@H](NC(=O)[C@@H](NC(=O)[C@H](CCC(=O)O)NC(=O)[C@H](CCCNC(=N)N)NC(=O)CN)[C@@H](C)CC)[C@@H](C)CC)C(=O)N[C@@H](CCC(N)=O)C(=O)N[C@@H](CC(N)=O)C(=O)O [Peptide 9019.0112]", "15 different HLA-DR molecules", 10),
    ("CC(C)C[C@H](NC(=O)[C@@H]1CCCN1C(=O)[C@H](CC(C)C)NC(=O)[C@H](CC(C)C)NC(=O)[C@@H]1CCCN1C(=O)[C@H](CC(C)C)NC(=O)[C@H](CC(C)C)NC(=O)[C@@H]1CCCN1C(=O)[C@@H]1CCCN1C(=O)[C@@H]1CCCN1C(=O)[C@@H]1CCCN1C(=O)[C@H](CC(C)C)NC(=O)[C@@H]1CCCN1C(=O)[C@H](CC(C)C)NC(=O)[C@H](C)N)C(=O)O [Peptide 9019.0174]", "15 different HLA-DR molecules", 8),
    ("CC[C@H](C)[C@H](NC(=O)[C@H](CCC(N)=O)NC(=O)[C@H](CCCNC(=N)N)NC(=O)[C@H](CC(N)=O)NC(=O)CNC(=O)[C@H](CC(=O)O)NC(=O)[C@@H](NC(=O)[C@H](CCCNC(=N)N)NC(=O)[C@H](CCC(=O)O)NC(=O)CNC(=O)[C@H](CCCCN)NC(=O)[C@H](Cc1ccc(O)cc1)NC(=O)[C@H](Cc1c[nH]c2ccccc12)NC(=O)[C@H](CO)NC(=O)[C@@H](N)Cc1ccc(O)cc1)C(C)C)C(=O)O [Peptide 9019.0108]", "15 different HLA-DR molecules", 8),
    ("CC[C@H](C)[C@H](NC(=O)[C@@H](NC(=O)[C@@H](NC(=O)[C@H](Cc1ccccc1)NC(=O)[C@H](CCCNC(=N)N)NC(=O)[C@H](CCC(N)=O)NC(=O)[C@@H]1CCCN1C(=O)[C@H](CC(=O)O)NC(=O)[C@H](CCCNC(=N)N)NC(=O)[C@H](C)NC(=O)[C@H](CCSC)NC(=O)[C@H](CCCNC(=N)N)NC(=O)[C@H](CO)NC(=O)[C@@H](N)Cc1ccccc1)C(C)C)C(C)C)C(=O)N[C@@H](CCC(N)=O)C(=O)O [Peptide 9019.0004]", "15 different HLA-DR molecules", 10),
]
